Reference source for all entries: ChEMBL document CHEMBL5126609

# MEASUREMENT TARGET: hERG (KCNH2) (Homo sapiens, UniProt Q12809)
# Sequence (Q12809 whole entry): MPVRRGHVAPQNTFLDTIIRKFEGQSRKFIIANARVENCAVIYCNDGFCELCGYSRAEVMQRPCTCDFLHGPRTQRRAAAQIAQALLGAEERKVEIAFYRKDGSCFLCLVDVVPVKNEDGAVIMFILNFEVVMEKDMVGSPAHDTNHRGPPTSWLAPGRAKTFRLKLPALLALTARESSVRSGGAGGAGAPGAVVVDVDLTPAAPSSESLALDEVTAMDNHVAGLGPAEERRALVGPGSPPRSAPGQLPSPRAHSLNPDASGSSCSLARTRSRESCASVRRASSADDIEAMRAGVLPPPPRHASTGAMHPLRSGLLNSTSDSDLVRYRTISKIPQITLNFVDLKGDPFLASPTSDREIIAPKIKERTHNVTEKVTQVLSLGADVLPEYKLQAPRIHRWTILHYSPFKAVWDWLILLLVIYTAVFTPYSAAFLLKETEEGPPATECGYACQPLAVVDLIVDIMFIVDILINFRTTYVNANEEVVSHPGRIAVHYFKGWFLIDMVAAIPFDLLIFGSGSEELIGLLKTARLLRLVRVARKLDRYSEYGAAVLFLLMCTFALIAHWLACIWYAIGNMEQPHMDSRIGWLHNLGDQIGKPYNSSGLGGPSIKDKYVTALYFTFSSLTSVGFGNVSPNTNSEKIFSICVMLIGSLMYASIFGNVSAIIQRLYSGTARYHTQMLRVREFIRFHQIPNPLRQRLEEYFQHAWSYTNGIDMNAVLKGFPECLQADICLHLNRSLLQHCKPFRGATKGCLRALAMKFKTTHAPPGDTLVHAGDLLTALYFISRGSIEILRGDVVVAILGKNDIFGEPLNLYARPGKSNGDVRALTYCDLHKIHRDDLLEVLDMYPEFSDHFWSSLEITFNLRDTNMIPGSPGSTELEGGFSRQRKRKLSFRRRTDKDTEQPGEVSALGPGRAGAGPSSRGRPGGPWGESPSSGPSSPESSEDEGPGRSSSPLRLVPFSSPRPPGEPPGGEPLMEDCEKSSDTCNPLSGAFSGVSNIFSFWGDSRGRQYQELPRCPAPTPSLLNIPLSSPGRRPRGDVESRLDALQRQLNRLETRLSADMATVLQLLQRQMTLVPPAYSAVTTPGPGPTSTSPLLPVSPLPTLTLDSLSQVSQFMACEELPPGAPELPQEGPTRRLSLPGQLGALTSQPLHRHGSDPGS
# EXPERIMENTAL DETAILS: Inhibition of hERG expressed in CHO cells at 3 uM at -80 mV holding potential assessed as current block incubated for 3 mins by Qpatch clamp method relative to control
MEASURED METRIC: inhibition at 0.05 h, 3 µM (%)
I only need the number, in %, no unit after it.

| COMPOUND | inhibition at 0.05 h, 3 µM / % |
| --- | --- |
| COCCn1c(-c2nc(C(F)(F)F)sc2N2CCN(C(=O)Cn3cccn3)[C@H](C)C2)nc2ccccc21 | 2 |
| Cc1nc(C)n(CC(=O)N2CCN(c3sc(C(F)(F)F)nc3-c3nc4ccc(N5CCOCC5)cc4[nH]3)C[C@H]2C)n1 | 4 |
| Cc1nc(C)n(CC(=O)N2CCN(c3sc(C(F)(F)F)nc3-c3nc4ccc(C5CCN(C)CC5)cc4[nH]3)C[C@H]2C)n1 | -5 |
| C[C@@H]1CN(c2sc(C(F)(F)F)nc2-c2nc3cc(OCCO)ccc3[nH]2)CCN1C(=O)Cn1cnc2cccnc21 | 25 |
| Cc1nc(C)n(CC(=O)N2CCN(c3sc(C(F)(F)F)nc3-c3nc4cccc(C)c4[nH]3)C[C@H]2C)n1 | 52 |

Item Cc1nc(C)n(CC(=O)N2CCN(c3sc(C(F)(F)F)nc3-c3nc4ccccc4[nH]3)C[C@H]2C)n1 : provide inhibition at 0.05 h, 3 µM
45

# return recorded inhibition at 0.05 h, 3 µM for entry Cc1nc(C)n(CC(=O)N2CCN(c3sc(C(F)(F)F)nc3-c3nc4ccc(-n5cncn5)cc4[nH]3)C[C@H]2C)n1
3

Please list inhibition at 0.05 h, 3 µM recorded for the compound COC1CCN(CC(=O)N2CCN(c3sc(C(F)(F)F)nc3-c3nc4ccccc4[nH]3)C[C@H]2C)C1 (stereo partly specified)
85

Consider the compound C[C@@H]1CN(c2sc(C(F)(F)F)nc2-c2nc3cc(Cl)ccc3[nH]2)CCN1C(=O)Cn1cnc2cccnc21 and give its recorded inhibition at 0.05 h, 3 µM.
83

Fill in inhibition at 0.05 h, 3 µM for record Cc1nc(C)n(CC(=O)N2CCN(c3sc(C(F)(F)F)nc3-c3nc4ccc(OC5COC5)cc4[nH]3)C[C@H]2C)n1
0

Return value of inhibition at 0.05 h, 3 µM for input COc1cc2nc(-c3nc(C(F)(F)F)sc3N3CCN(C(=O)Cn4cnc5cccnc54)[C@H](C)C3)[nH]c2cc1OC , no commentary.
20

Please report the measured inhibition at 0.05 h, 3 µM for C[C@@H]1CN(c2sc(C(F)(F)F)nc2-c2nc3ccccc3[nH]2)CCN1C(=O)Cn1c(=O)[nH]c2cccnc21
53

Look up and report measured inhibition at 0.05 h, 3 µM for this entry: Cc1nc(C)n(CC(=O)N2CCN(c3sc(C(F)(F)F)nc3-c3nc4ccc(C5CCNCC5)cc4[nH]3)C[C@H]2C)n1
5

###

# EXPERIMENTAL DETAILS: in vitro
# COND: rat, microsomes
MEASURED METRIC: microsomal CLint at 0.25 h, 1 µM
A complete answer gives the number and then names the unit.

| MOL SMILES | REPORTED |
| --- | --- |
| C[C@@H]1CN(c2sc(C(F)(F)F)nc2-c2nc3ccccc3[nH]2)CCN1C(=O)Cn1cnc2cccnc21 | 104 µL/min/mg |
| Cc1nc(C)n(CC(=O)N2CCN(c3sc(C(F)(F)F)nc3-c3nc4ccccc4[nH]3)C[C@H]2C)n1 | 39 µL/min/mg |

Consider the molecule COc1cc2nc(-c3nc(C(F)(F)F)sc3N3CCN(C(=O)Cn4cnc5cccnc54)[C@H](C)C3)[nH]c2cc1OC and give its recorded microsomal CLint at 0.25 h, 1 µM.
53 µL/min/mg

###

# EXPERIMENTAL DETAILS: Cmax in rat plasma at 300 mg/kg/day measured on day 14
# Format: ADME, organism-based
# Set-up: dose 300 mg/kg/day
MEASURED METRIC: Cmax (µM)
API: value field is a number in µM; no unit string.

Provide one value: measured Cmax of Cc1nc(C)n(CC(=O)N2CCN(c3sc(C(F)(F)F)nc3-c3nc4ccc(-c5noc(C)n5)cc4[nH]3)C[C@H]2C)n1
3.5

###

Examples of compounds with documented microsomal CLint at 0.25 h, 1 µM follow.
# EXPERIMENTAL DETAILS: in vitro
# COND: mouse, microsomes
Respond numerically; units are µL/min/mg and should not be typed.

Consider the following illustrative entries.
| MOL SMILES | microsomal CLint at 0.25 h, 1 µM (µL/min/mg) |
| --- | --- |
| C[C@@H]1CN(c2sc(C(F)(F)F)nc2-c2nc3cc(OCCO)ccc3[nH]2)CCN1C(=O)Cn1cnc2cccnc21 | 31 |
| Cc1nc(C)n(CC(=O)N2CCN(c3sc(C(F)(F)F)nc3-c3nc4ccc(N5CCOCC5)cc4[nH]3)C[C@H]2C)n1 | 18 |
| Cc1nc(C)n(CC(=O)N2CCN(c3sc(C(F)(F)F)nc3-c3nc4c(F)cccc4[nH]3)C[C@H]2C)n1 | 25 |
| C[C@@H]1CN(c2sc(C(F)(F)F)nc2-c2nc3ccccc3[nH]2)CCN1C(=O)Cn1cccn1 | 218 |
| C[C@@H]1CN(c2sc(C(F)(F)F)nc2-c2nc3ccccc3[nH]2)CCN1C(=O)Cn1cnc2cccnc21 | 104 |

Provide measured microsomal CLint at 0.25 h, 1 µM value, entry: Cc1nn(CC(=O)N2CCN(c3sc(C(F)(F)F)nc3-c3nc4ccccc4[nH]3)C[C@H]2C)cc1CN(C)C
29

Give microsomal CLint at 0.25 h, 1 µM for the following compound: Cc1nc(C)n(CC(=O)N2CCN(c3sc(C(F)(F)F)nc3-c3nc4ccc(C5CCOCC5)cc4[nH]3)C[C@H]2C)n1
46

Given the compound Cc1nc(C)n(CC(=O)N2CCN(c3sc(C(F)(F)F)nc3-c3nc4ccccc4[nH]3)C[C@H]2C)n1 , write its reported microsomal CLint at 0.25 h, 1 µM.
21

###

# MEASUREMENT TARGET: C-X-C chemokine receptor type 3 (Homo sapiens, UniProt P49682)
# Sequence (P49682 whole entry): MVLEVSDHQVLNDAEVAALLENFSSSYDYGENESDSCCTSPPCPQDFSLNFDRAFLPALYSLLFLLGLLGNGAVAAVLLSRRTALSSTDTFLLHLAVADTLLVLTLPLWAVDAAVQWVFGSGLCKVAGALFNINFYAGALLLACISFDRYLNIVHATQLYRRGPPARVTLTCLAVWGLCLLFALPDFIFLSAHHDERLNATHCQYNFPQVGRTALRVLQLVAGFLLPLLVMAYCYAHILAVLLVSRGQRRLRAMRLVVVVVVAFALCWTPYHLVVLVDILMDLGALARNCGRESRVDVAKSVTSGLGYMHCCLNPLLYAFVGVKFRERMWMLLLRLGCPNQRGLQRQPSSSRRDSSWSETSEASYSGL
# EXPERIMENTAL DETAILS: Antagonist activity at human recombinant CXCR3 in human venous blood assessed as receptor internalization measured for 30 mins in presence of CXCL10 by flow cytometric analysis
MEASURED METRIC: pIC50
pIC50 field: float, defined as -log10 of concentration (mol/L).

Worked examples, 6 molecules total:
| MOL SMILES | pIC50 |
| --- | --- |
| C[C@@H]1CN(c2sc(C(F)(F)F)nc2-c2nc3ccccc3[nH]2)CCN1C(=O)Cn1c(=O)[nH]c2cccnc21 | 6.84 |
| Cc1nc(C)n(CC(=O)N2CCN(c3sc(C(F)(F)F)nc3-c3nc4c(C(F)(F)F)cccc4[nH]3)C[C@H]2C)n1 | 6.13 |
| Cc1ccc(CC(=O)N2CCN(c3sc(C(F)(F)F)nc3-c3nc4ccccc4[nH]3)C[C@H]2C)cn1 | 6.09 |
| C[C@@H]1CN(c2sc(C(F)(F)F)nc2-c2nc3ccc(N4CCN(C)CC4)cc3[nH]2)CCN1C(=O)Cn1cccn1 | 6.91 |
| Cc1nc(C)n(CC(=O)N2CCN(c3sc(C(F)(F)F)nc3-c3nc4ccc(C5CCOCC5)cc4[nH]3)C[C@H]2C)n1 | 6.91 |
| COCCn1c(-c2nc(C(F)(F)F)sc2N2CCN(C(=O)Cn3cccn3)[C@H](C)C2)nc2ccccc21 | 5.16 |

Provide measured pIC50 value, entry: C[C@@H]1CN(c2sc(C(F)(F)F)nc2-c2nc3cc(Cl)ccc3[nH]2)CCN1C(=O)Cn1cnc2cccnc21
7.41

Indicate its recorded pIC50; the molecule in question is COc1cc2nc(-c3nc(C(F)(F)F)sc3N3CCN(C(=O)Cn4cnc5cccnc54)[C@H](C)C3)[nH]c2cc1OC
6.84

Using known records, supply pIC50 for C[C@@H]1CN(c2sc(C(F)(F)F)nc2-c2nc3ccccc3[nH]2)CCN1C(=O)Cn1cccn1
6.72

Kindly indicate its recorded pIC50. Item: Cc1nc(C)n(CC(=O)N2CCN(c3sc(C(F)(F)F)nc3-c3nc4ccc(OC5CNC5)cc4[nH]3)C[C@H]2C)n1
6.24

Tell me measured pIC50 for Cc1nc(C)n(CC(=O)N2CCN(c3sc(C(F)(F)F)nc3-c3nc4ccc(-n5cncn5)cc4[nH]3)C[C@H]2C)n1 please.
5.95

Read off the recorded pIC50 for Cc1nn(CC(=O)N2CCN(c3sc(C(F)(F)F)nc3-c3nc4ccccc4[nH]3)C[C@H]2C)cc1CN(C)C
6.48

Please supply the value of reported pIC50 for the item Cc1nnc(CC(=O)N2CCN(c3sc(C(F)(F)F)nc3-c3nc4ccccc4[nH]3)C[C@H]2C)o1
5.61

Indicate the recorded pIC50 value for this molecule: Cc1nc(C)n(CC(=O)N2CCN(c3sc(C(F)(F)F)nc3-c3nc4ccc(C5CCNCC5)cc4[nH]3)C[C@H]2C)n1
6.51

Dear colleague, please send me the reported pIC50 for C[C@@H]1CN(c2sc(C(F)(F)F)nc2-c2nc3ccccc3[nH]2)CCN1C(=O)Cn1cnc2c1CCN(C)C2 when you can.
6.87

Let me know recorded pIC50 for C[C@@H]1CN(c2sc(C(F)(F)F)nc2-c2nc3ccccc3[nH]2)CCN1C(=O)Cc1cccc2cccnc12 , thanks.
6.30
